Attribute: IC50, inhibition of KU812-IL5 production promoted by oxidized IL33
tested_system: T1, ST2 on the effector cells (KU812, KU812/NF-κB-1#, HUVEC, HMC-1) (human, UniProt Q01638 19-556)
T1 sequence (looked up): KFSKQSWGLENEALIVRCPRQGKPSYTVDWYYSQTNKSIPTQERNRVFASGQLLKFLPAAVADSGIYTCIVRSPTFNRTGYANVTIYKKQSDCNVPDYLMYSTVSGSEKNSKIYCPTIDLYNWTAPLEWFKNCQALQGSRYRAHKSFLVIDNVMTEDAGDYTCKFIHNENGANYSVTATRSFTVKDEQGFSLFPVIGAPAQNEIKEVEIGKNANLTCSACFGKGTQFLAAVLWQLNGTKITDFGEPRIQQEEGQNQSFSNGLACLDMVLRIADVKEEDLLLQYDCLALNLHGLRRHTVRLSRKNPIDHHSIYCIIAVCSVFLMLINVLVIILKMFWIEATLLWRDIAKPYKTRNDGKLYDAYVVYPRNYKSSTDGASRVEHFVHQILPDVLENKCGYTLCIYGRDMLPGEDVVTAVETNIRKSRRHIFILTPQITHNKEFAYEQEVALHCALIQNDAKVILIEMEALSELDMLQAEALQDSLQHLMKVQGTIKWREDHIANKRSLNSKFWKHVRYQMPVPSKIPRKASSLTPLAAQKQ
protocol: cell-based or functional assay
Give just the number in µg/mL; leave the unit off.

INSERT INTO assay_data (binder, readout_unit, reading) VALUES
  ('Control antibody CNTO7160 (antibody, human IgG4 S228P, kappa, V domains shown, Known anti-ST2 control antibody) VH: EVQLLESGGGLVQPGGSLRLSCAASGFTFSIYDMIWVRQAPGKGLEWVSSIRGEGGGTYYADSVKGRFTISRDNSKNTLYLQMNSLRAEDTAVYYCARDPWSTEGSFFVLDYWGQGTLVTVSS VL: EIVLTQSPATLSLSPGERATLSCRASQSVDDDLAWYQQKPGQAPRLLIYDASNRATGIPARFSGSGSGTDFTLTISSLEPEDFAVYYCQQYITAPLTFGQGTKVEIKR', 'µg/mL', 0.0221);

Proceed to the following item.
Query: # input binder: 5888-153-H0L1 (antibody, human IgG4 S228P, kappa, V domains shown, Humanized antibody) VH: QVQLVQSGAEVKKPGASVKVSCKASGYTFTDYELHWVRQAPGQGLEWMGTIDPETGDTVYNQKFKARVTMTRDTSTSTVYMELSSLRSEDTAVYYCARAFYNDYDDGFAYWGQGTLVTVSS VL: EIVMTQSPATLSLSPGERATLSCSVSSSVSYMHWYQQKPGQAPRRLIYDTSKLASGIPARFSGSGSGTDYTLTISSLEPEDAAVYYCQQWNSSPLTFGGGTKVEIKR ; wanted: its IC50, inhibition of KU812-IL5 production promoted by oxidized IL33
Result: 0.0147
